Just for reference, patent US20080051401A1 is where these values come from.

# Tested on: phosphorylation of Serine 473 in Akt in MDA-MB-468 human breast adenocarcinoma cell line
# procedure.details: In vitro phospho-Ser473 Akt assay, Test (b)
# Format: cell-based
# setup.conditions: MDA-MB-468 cells, 2 hours incubation, read-out: IC50, inhibition of phosphorylation of Serine 473 in Akt
pIC50: −log10 of the molar value.
property.label: pIC50

O=C(Nc1cccc(-c2cc(N3CCOCC3)nc(-c3cccc(CO)c3)n2)c1)C1CCNCC1    ~5.30
O=C(Nc1cccc(-c2cc(N3CCOCC3)nc(-c3cccc(O)c3)n2)c1)C1CCCNC1 (stereo not drawn)    ~6.52
O=C(Nc1cccc(-c2cc(N3CCOCC3)nc(-c3cccc(CO)c3)n2)c1)N1CCNCC1    ~6.30
